meta.source: the supplement of paper PMC11061612

system: OACp4C (Esophageal Adenocarcinoma); test: combination Emax (second highest fraction inhibited in the dose matrix, 72 h); higher = more inhibition; extreme values may be limits of the assay
If the reported combination Emax equals or exceeds 0.9, assign 1 (yes). If not, assign 0 (no).

Example results:
COc1cccc2c1C(=O)c1c(O)c3c(c(O)c1C2=O)C[C@@](O)(C(=O)CO)C[C@@H]3O[C@H]1C[C@H](N)[C@H](O)[C@H](C)O1 [Doxorubicin] + Cc1cc2ncnn2cc1Nc1ncc2c(n1)n(C1CCOCC1)c(=O)n2C [AZD7648] (first compound max 1 µM, 7x7, partner max 10 µM): 0 (no)
Cc1c2c(nn1C)CSCc1cc(n(C)n1)CSc1cc(c3ccccc3c1)OCCCc1c(C(=O)O)n(C)c3c-2c(Cl)ccc13 [AZD5991] + C[C@@H]1COCCN1C2=NC(=NC(=C2)C3(CC3)[S@](=N)(=O)C)C4=C5C=CNC5=NC=C4 [AZD6738] (first compound max 1 µM, 7x7, partner max 10 µM): 0 (no)
Cn1cnc2c(F)c(Nc3ccc(Br)cc3Cl)c(C(=O)NOCCO)cc21 [Selumetinib] + CCN(CCO)CCCOc1ccc2c(Nc3cc(CC(=O)Nc4cccc(F)c4)[nH]n3)ncnc2c1 [AZD2811] (first compound max 10 µM, 7x7, partner max 1 µM): 0 (no)
CC1(C)CCC(CN2CCN(c3ccc(C(=O)NS(=O)(=O)c4ccc(NCC5CCOCC5)c([N+](=O)[O-])c4)c(Oc4cnc5[nH]ccc5c4)c3)CC2)=C(c2ccc(Cl)cc2)C1 [Venetoclax] + COc1cc(Nc2ncc3c(n2)-c2ccc(Cl)cc2C(c2c(F)cccc2OC)=NC3)ccc1C(=O)O [Alisertib] (first compound max 1 µM, 7x7, partner max 10 µM): 0 (no)

Could you please find out whether CS(=O)(=O)CCNCc1ccc(-c2ccc3ncnc(Nc4ccc(OCc5cccc(F)c5)c(Cl)c4)c3c2)o1 [Lapatinib] + C[C@@H](Oc1cc(-c2cnn(C3CCNCC3)c2)cnc1N)c1c(Cl)ccc(F)c1Cl [Crizotinib] (first compound max 10 µM, 7x7, partner max 10 µM) has combination Emax that meets 0.9 or exceeds it?
1 (yes)

Could you tell me if the measured combination Emax of C[C@@H]1COCCN1c1cc(C2([S@](C)(=N)=O)CC2)nc(-c2ccnc3[nH]ccc23)n1 [AZD6738] + O=C(c1cc(Cc2n[nH]c(=O)c3ccccc23)ccc1F)N1CCN(C(=O)C2CC2)CC1 [Olaparib] (first compound max 10 µM, 7x7, partner max 10 µM) reaches 0.9 or more?
0 (no)

Does Cc1cc2ncnn2cc1Nc1ncc2c(n1)n(C1CCOCC1)c(=O)n2C [AZD7648] + CCN(CCO)CCCOc1ccc2c(Nc3cc(CC(=O)Nc4cccc(F)c4)[nH]n3)ncnc2c1 [AZD2811] (first compound max 10 µM, 7x7, partner max 1 µM) have a reported combination Emax of at least 0.9?
0 (no)

# bool: combination Emax of NC1(C(=O)N[C@@H](CCO)c2ccc(Cl)cc2)CCN(c2ncnc3[nH]ccc23)CC1 [Capivasertib] + CC(=O)c1c(C)c2cnc(Nc3ccc(N4CCNCC4)cn3)nc2n(C2CCCC2)c1=O [Palbociclib] (first compound max 10 µM, 7x7, partner max 10 µM) >= 0.9
0 (no)

Assess whether reported combination Emax for Cc1cc2ncnn2cc1Nc1ncc2c(n1)n(C1CCOCC1)c(=O)n2C [AZD7648] + CN(C)CCCOc1ccc(-c2ccc3ncc4c(c3c2)n(C2CCOCC2)c(=O)n4C)cn1 [AZD0156] (first compound max 10 µM, 7x7, partner max 1 µM) sits at 0.9 or higher.
0 (no)

Reported combination Emax at or above 0.9? Cn1cnc2c(F)c(Nc3ccc(Br)cc3Cl)c(C(=O)NOCCO)cc21 [Selumetinib] + C[C@@H]1COCCN1C2=NC(=NC(=C2)C3(CC3)[S@](=N)(=O)C)C4=C5C=CNC5=NC=C4 [AZD6738] (first compound max 10 µM, 7x7, partner max 10 µM)
0 (no)

Reported combination Emax reaches at least 0.9 for CN(CCO)CC[C@H](CSc1ccccc1)Nc1ccc(S(=O)(=O)NC(=O)c2ccc(N3CCC([C@@H](O)c4ccccc4-c4ccc(Cl)cc4)CC3)cc2)cc1S(=O)(=O)C(F)(F)F [AZD4320] + C[C@@H]1COCCN1C2=NC(=NC(=C2)C3(CC3)[S@](=N)(=O)C)C4=C5C=CNC5=NC=C4 [AZD6738] (first compound max 1 µM, 7x7, partner max 10 µM) ?
1 (yes)

Kindly determine if combination Emax recorded for NC1(C(=O)N[C@@H](CCO)c2ccc(Cl)cc2)CCN(c2ncnc3[nH]ccc23)CC1 [Capivasertib] + Cn1cnc2c(F)c(Nc3ccc(Br)cc3Cl)c(C(=O)NOCCO)cc21 [Selumetinib] (first compound max 10 µM, 7x7, partner max 10 µM) is above or exactly 0.9.
1 (yes)

Confirm if combination Emax reported for the compound Cc1cc2ncnn2cc1Nc1ncc2c(n1)n(C1CCOCC1)c(=O)n2C [AZD7648] + O=C(c1cc(Cc2n[nH]c(=O)c3ccccc23)ccc1F)N1CCN(C(=O)C2CC2)CC1 [Olaparib] (first compound max 10 µM, 7x7, partner max 10 µM) is 0.9 or above.
0 (no)

Has Cc1cc2ncnn2cc1Nc1ncc2c(n1)n(C1CCOCC1)c(=O)n2C [AZD7648] + C=CCn1c(=O)c2cnc(Nc3ccc(N4CCN(C)CC4)cc3)nc2n1-c1cccc(C(C)(C)O)n1 [AZD1775] (first compound max 10 µM, partner max 1 µM) a recorded combination Emax greater than or equal to 0.9?
0 (no)
